# ASSAY COMMENT: Ratio of kcat/km of PKS TEs assessed as hydrolysis of 6-deoxyerythronolide-B
Assign class by kcat/Km: not lower than 0.9 M⁻¹ s⁻¹ means t; lower than 0.9 M⁻¹ s⁻¹ means f.

Study these solved cases before continuing.
Input line: Does CC(=O)NCCSC(=O)CNC(=O)OC(C)(C)C have a reported kcat/Km of at least 0.9 M⁻¹ s⁻¹?
Output line: t

Input line: Does CC(=O)NCCSC(=O)CCCCCCNC(=O)OC(C)(C)C have a reported kcat/Km of at least 0.9 M⁻¹ s⁻¹?
Output line: t

Further cases:
Input line: Does CC(=O)NCCSC(=O)CNC(=O)[C@H](C)NC(=O)OC(C)(C)C have a reported kcat/Km of at least 0.9 M⁻¹ s⁻¹?
Output line: f

Input line: Does CC(=O)NCCSC(=O)[C@@H](C)NC(=O)OC(C)(C)C have a reported kcat/Km of at least 0.9 M⁻¹ s⁻¹?
Output line: f

Input line: Does CC(=O)NCCSC(=O)CCNC(=O)c1ccccc1 have a reported kcat/Km of at least 0.9 M⁻¹ s⁻¹?
Output line: t

Input line: Does CC(=O)NCCSC(=O)CNC(=O)[C@@H](C)NC(=O)OC(C)(C)C have a reported kcat/Km of at least 0.9 M⁻¹ s⁻¹?
Output line: f
